Origin of the recorded values: patent US20260116991A1

- Target entity: T1, polypeptide GC3pep (human)
- T1 construct: also called membrane proximal polypeptide GC3pep
- T1 peptide: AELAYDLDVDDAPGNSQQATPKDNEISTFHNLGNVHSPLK
- Assay explanation: ELISA, GC3pep coated, antibody 0.001 nM
Measured OD450 nm, listed per entry for reference.

Binder	Unit symbol	OD450 nm
F1.62.9 (antibody, human IgG1, kappa, V domains shown, human-murine chimeric antibody) VH: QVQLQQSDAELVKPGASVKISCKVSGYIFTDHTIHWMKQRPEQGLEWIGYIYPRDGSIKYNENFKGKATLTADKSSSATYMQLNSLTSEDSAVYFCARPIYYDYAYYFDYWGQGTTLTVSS VL: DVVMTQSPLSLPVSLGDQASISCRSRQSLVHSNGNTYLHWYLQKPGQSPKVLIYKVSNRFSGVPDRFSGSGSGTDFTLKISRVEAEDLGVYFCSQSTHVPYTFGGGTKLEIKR	OD450 nm	0.05
F1.153.1 (antibody, human IgG1, kappa, V domains shown, human-murine chimeric antibody) VH: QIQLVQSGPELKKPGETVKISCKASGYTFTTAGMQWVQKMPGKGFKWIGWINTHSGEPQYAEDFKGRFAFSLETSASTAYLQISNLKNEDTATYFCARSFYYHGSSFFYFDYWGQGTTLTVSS VL: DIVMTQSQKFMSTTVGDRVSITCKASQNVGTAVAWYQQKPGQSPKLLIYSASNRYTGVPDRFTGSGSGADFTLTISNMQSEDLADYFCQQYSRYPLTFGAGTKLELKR	OD450 nm	0.05
F1.42.8 (antibody, human IgG1, kappa, V domains shown, human-murine chimeric antibody) VH: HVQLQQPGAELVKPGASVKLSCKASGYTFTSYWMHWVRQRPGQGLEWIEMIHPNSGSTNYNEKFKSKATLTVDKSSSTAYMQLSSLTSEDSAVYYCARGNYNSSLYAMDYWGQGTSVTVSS VL: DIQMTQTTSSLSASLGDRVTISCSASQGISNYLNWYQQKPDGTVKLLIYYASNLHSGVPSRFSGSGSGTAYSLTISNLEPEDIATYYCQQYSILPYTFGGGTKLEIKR	OD450 nm	0.05
F1.120.16 (antibody, human IgG1, kappa, V domains shown, human-murine chimeric antibody) VH: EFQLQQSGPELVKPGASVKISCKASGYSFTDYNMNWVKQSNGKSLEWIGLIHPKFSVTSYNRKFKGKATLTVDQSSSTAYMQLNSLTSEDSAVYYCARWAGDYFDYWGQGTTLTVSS VL: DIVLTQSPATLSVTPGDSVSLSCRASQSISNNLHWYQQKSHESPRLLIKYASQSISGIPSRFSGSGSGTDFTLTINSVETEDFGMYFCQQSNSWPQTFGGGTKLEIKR	OD450 nm	0.04
